Molecular target: Protein kinase C epsilon type (Homo sapiens, UniProt Q02156)
Sequence (Q02156 whole entry): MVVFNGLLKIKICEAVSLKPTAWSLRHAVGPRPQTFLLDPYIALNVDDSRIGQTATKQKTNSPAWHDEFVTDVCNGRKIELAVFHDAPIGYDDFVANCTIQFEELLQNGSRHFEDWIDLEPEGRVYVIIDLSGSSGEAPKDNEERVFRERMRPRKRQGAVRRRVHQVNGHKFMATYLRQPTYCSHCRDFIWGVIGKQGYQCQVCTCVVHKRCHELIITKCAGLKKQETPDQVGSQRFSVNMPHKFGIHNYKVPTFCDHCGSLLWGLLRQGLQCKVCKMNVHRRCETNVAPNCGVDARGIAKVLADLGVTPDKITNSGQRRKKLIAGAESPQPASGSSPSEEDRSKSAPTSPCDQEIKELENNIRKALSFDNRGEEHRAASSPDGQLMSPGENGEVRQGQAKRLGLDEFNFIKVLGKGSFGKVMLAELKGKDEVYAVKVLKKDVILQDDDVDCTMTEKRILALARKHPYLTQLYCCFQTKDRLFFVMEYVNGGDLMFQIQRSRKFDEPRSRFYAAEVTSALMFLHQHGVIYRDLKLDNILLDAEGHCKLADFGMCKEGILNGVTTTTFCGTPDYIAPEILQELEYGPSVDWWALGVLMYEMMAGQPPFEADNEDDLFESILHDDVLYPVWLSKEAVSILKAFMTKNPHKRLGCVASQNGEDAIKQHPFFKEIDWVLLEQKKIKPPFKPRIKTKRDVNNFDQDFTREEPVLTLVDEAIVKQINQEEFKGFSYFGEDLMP
Test: Evaluated against recombinant human Protein kinase C epsilon
measuredProperty: IC50 (nM)

INSERT INTO assay_data (compound, assayresult) VALUES
  ('O=C(OCC(Cc1ccc(O)cc1)NS(=O)(=O)c1ccccc1)c1cc(O)c(C(=O)c2c(O)cccc2C(=O)O)c(O)c1 (stereo unspecified)', 320);

[a] O=C(OC1CNCC1Cc1ccc(O)cc1)c1cc(O)c(C(=O)c2c(O)cccc2C(=O)O)c(O)c1 (stereo unspecified)
[b] COC(=O)c1cccc(O)c1C(=O)c1c(O)cc(C(=O)OC[C@@H](Cc2ccc(O)cc2)NS(=O)(=O)c2ccccc2)cc1O
**Q:** Dear colleague, could you let me know whether a or b has the lower recorded IC50? Thanks. Which one? Tell me its label.
**A:** a

[A] O=C(OC[C@H](Cc1ccc(O)cc1)NS(=O)(=O)c1ccccc1)c1cc(O)c(C(=O)c2c(O)cccc2C(=O)O)c(O)c1
[B] O=C(OC1CCCC1Oc1ccc(O)cc1)c1cc(O)c(C(=O)c2c(O)cccc2C(=O)O)c(O)c1 (stereo unspecified)
**Q:** Would you kindly point out which of A and B has the smaller IC50 figure? Selection: enter the item's label.
**A:** B

====

Molecular target: Protein kinase C delta type (Homo sapiens, UniProt Q05655)
Sequence (Q05655 whole entry): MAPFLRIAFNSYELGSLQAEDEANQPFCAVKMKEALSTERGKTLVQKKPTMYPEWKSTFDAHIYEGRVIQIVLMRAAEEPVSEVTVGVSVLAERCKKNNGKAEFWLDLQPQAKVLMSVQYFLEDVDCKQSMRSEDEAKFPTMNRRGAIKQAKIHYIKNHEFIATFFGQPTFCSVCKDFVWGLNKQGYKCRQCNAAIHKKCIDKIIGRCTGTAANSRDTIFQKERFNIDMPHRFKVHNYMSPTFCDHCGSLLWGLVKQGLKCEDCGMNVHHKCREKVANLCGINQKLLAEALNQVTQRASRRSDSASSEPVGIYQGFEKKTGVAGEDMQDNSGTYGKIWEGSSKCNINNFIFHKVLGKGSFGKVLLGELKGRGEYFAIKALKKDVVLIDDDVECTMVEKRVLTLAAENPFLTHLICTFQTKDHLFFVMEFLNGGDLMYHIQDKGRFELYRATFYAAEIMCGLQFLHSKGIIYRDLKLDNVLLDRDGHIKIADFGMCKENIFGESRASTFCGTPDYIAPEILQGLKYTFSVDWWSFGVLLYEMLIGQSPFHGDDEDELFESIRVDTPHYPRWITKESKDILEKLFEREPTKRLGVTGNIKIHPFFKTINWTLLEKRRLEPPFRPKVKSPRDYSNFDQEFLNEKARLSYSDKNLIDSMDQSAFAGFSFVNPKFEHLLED
Experiment: Evaluated against recombinant human Protein kinase C delta
measuredProperty: IC50 (nM)

Known results for compounds:
INSERT INTO measurements (compound, targetsystem, assayresult) VALUES
  ('CC(CCc1ccc(O)cc1)OC(=O)c1cc(O)c(C(=O)c2c(O)cccc2C(=O)O)c(O)c1 (stereo not given)', 'Protein kinase C delta type (Homo sapiens, UniProt Q05655)', 30),
  ('O=C(OC1CCCC1Cc1ccc(O)cc1)c1cc(O)c(C(=O)c2c(O)cccc2C(=O)O)c(O)c1 (stereo in doubt; 20b)', 'Protein kinase C delta type (Homo sapiens, UniProt Q05655)', 30);

[P] O=C(N[C@@H]1CNCCC[C@H]1OC(=O)c1cc(O)c(C(=O)c2c(O)cccc2C(=O)O)c(O)c1)c1ccc(O)cc1
[Q] O=C(OCC(NS(=O)(=O)c1ccccc1)c1ccc(O)cc1)c1cc(O)c(C(=O)c2c(O)cccc2C(=O)O)c(O)c1 (stereo not given)
**Q:** Out of P and Q , name the one with the higher IC50. Write down the label of the entry you select.
**A:** Q

====

Biological target: Protein kinase C alpha type (Homo sapiens, UniProt P17252)
Experiment: Evaluated against recombinant human Protein kinase C alpha
pIC50: −log10 of the molar value.
measuredProperty: pIC50

INSERT INTO results (compound, assayresult) VALUES
  ('O=C(OC[C@@H](Cc1ccc(O)cc1)NS(=O)(=O)c1ccccc1)c1cc(O)c(C(=O)c2c(O)cccc2C(=O)O)c(O)c1', 6.68);

[a] O=C(OC1CCCC1Cc1ccc(O)cc1)c1cc(O)c(C(=O)c2c(O)cccc2C(=O)O)c(O)c1 (stereo in doubt; 20b)
[b] O=C(NC(COC(=O)c1cc(O)c(C(=O)c2c(O)cccc2C(=O)O)c(O)c1)Cc1ccc(O)cc1)c1ccc(O)cc1 (centres undefined)
**Q:** Of a and b , whose reported pIC50 is the larger number? Reply with the label of the item you choose.
**A:** a

====

Listed below: IC50 values for each entry.
Assay: Evaluated against bovine heart Protein Kinase A (PKA)

Examples from the recorded data:
INSERT INTO measurements (molecule, assayresult) VALUES
  ('O=C(OCC(Cc1ccc(O)cc1)NS(=O)(=O)c1ccccc1)c1cc(O)c(C(=O)c2c(O)cccc2C(=O)O)c(O)c1 (stereo not drawn)', '> 50 µM'),
  ('CS(=O)(=O)NC(COC(=O)c1cc(O)c(C(=O)c2c(O)cccc2C(=O)O)c(O)c1)Cc1ccc(O)cc1 (stereo not drawn)', '> 50 µM');

**Q:** Give me measured IC50, please, for this molecule: O=C(N[C@@H]1CNCCC[C@H]1OC(=O)c1cc(O)c(C(=O)c2c(O)cccc2C(=O)O)c(O)c1)c1ccc(O)cc1
**A:** 0.04 µM
